The measured values listed here are drawn from patent US12195490B2.

- System: ACHN cell line
- Method: drug screen of the SelleckChem kinase inhibitor library with and without 5 uM SU-329, Cell-Titer Glo after 5 days
- Format: cell-based
- Test Settings: kinase inhibitor at 200 nM with and without 5 uM SU329; ACHN cell line; 5 days; Cell-Titer Glo
Endpoint: log2fc
Quick one: just the number, no unit, thanks!

## Input Hello, I am looking for reported log2fc with ACHN cell line for CN1CC[C@H](c2c(O)cc(O)c3c(=O)cc(-c4ccccc4Cl)oc23)[C@H](O)C1 [Flavopiridol (Alvocidib)] . Could you help?
## Output 1.05

## Input Ok, now Cc1ccc(-n2nc(C(C)(C)C)cc2NC(=O)Nc2ccc(OCCN3CCOCC3)c3ccccc23)cc1
## Output −0.5477

## Input Same for Oc1c2ccccc2c2c3c(cccc13)N=N2 [SP600125, reference compound]
## Output 0.06823

## Input Same again, this time with CCCCCCCCc1ccc(CCC(N)(CO)CO)cc1.Cl [Fingolimod (FTY720) HCl]
## Output 0.7051

----------
- Tested on: ACHN cell line
- Method: drug screen of the SelleckChem kinase inhibitor library with and without 5 uM SU-329, Cell-Titer Glo after 5 days
- Format: cell-based
- Test Settings: kinase inhibitor at 200 nM with and without 5 uM SU329; ACHN cell line; 5 days; Cell-Titer Glo
Structures can show the parent of a compound that is named as a salt.
Can you tell me log2fc for the items I'm about to list?
Kindly provide the number alone.

## Input Sample CCc1cccc(CC)c1NC(=O)N1Cc2[nH]nc(NC(=O)c3ccc(N4CCN(C)CC4)cc3)c2C1 — what was its log2fc?
## Output −0.4048

## Input Next record, please: CC(C)(C)NS(=O)(=O)c1cncc(-c2cc(F)c3nc(N)nn3c2)c1
## Output 0.2139

## Input Entry CC(C)c1cnn2c(NCc3ccccc3)cc(NCCCCCCN)nc12.Cl [BS-181 HCl] please
## Output 0.09476

## Input Now consider NC1(Cc2ccc(Cl)cc2)CCN(c2ncnc3[nH]ccc23)CC1 and answer again.
## Output −0.2364

## Input Note, next up: Nc1nc(Nc2ccc(S(N)(=O)=O)cc2)nn1C(=O)c1c(F)cccc1F
## Output 0.3857

## Input Check CNc1nc(Nc2cn(C(C)(C)C#N)nc2C)ncc1C(F)(F)F too.
## Output 0.3098

## Input Check CNC(=O)c1cc(Oc2ccc(NC(=O)Nc3ccc(Cl)c(C(F)(F)F)c3)c(F)c2)ccn1 too.
## Output 0.8333

## Input How about O=C1NC(=O)/C(=C/c2ccc(-c3ccc(F)cc3O)o2)S1 ?
## Output −0.1563

## Input Okay, and CC1(C)CNc2cc(NC(=O)c3cccnc3NCc3ccncc3)ccc21.O=P(O)(O)O.O=P(O)(O)O [Motesanib Diphosphate (AMG-706)] ?
## Output −0.1118

## Input Now this one: CNC(=O)c1ccccc1Sc1ccc2c(/C=C/c3ccccn3)n[nH]c2c1
## Output 0.00155

## Input Again, but for COc1cc(OC)c(/C=C/S(=O)(=O)Cc2ccc(OC)c(NCC(=O)O)c2)c(OC)c1
## Output 0.6643

## Input Then this compound: O=c1[nH]c2ccc(Cl)cc2c(N[C@@H]2CN3CCC2CC3)c1-c1nc2ccccc2[nH]1
## Output 1.257

## Input Let us now turn to COc1ccc(-c2ccc3c(N4CCOC[C@@H]4C)nc(N4CCOC[C@@H]4C)nc3n2)cc1CO
## Output 0.1024

## Input What do you have for CNC(=O)c1cc(Oc2ccc(NC(=O)Nc3ccc(Cl)c(C(F)(F)F)c3)cc2)ccn1 [Sorafenib Tosylate] ?
## Output −0.2533

## Input Now consider C=CC(=O)Nc1cccc(Nc2nc(Nc3ccc(Oc4ccnc(C(=O)NC)c4)cc3)ncc2F)c1 and answer again.
## Output −0.2519

## Input One more compound: Cc1ccc(NC(=O)c2ccc(CN3CCN(C)CC3)cc2)cc1Nc1nc(-c2cccnc2)cs1
## Output 0.1874
